Source listed as ChEMBL document CHEMBL3608232.

target: Receptor-type tyrosine-protein phosphatase epsilon (Homo sapiens, UniProt P23469); assay: Inhibition of phosphatase activity of human PTPepsilon using pNPP as a substrate after 10 mins by spectrophotometer analysis
Sequence (P23469 whole entry): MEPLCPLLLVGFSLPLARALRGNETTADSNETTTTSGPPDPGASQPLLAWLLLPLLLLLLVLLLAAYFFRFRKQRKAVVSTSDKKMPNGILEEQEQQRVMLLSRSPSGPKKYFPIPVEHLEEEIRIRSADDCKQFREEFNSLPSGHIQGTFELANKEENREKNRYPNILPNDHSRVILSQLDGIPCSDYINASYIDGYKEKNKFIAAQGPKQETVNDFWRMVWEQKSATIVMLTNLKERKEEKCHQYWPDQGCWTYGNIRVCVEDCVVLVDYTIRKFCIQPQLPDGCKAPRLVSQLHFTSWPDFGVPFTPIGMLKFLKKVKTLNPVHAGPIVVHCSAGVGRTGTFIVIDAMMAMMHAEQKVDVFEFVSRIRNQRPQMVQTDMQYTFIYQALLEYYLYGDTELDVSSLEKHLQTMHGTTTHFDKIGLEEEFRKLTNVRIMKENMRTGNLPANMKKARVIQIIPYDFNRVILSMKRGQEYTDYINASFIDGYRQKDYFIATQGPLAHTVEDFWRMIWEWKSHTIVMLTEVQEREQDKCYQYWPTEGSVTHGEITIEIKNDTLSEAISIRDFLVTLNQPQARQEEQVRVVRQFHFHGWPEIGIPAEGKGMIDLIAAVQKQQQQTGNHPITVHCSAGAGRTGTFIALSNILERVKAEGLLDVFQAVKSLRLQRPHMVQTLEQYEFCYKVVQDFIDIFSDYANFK
pIC50: −log10 of the molar value.
measure name: pIC50

Sure, the documented pIC50 for O=C(Nc1ccc(NC(=O)C(c2ccccc2)S(=O)(=O)O)cc1)C(=O)Nc1ccc(-c2ccccc2)cc1 (stereo unspecified) is < 4.30

* * *

Target sequence: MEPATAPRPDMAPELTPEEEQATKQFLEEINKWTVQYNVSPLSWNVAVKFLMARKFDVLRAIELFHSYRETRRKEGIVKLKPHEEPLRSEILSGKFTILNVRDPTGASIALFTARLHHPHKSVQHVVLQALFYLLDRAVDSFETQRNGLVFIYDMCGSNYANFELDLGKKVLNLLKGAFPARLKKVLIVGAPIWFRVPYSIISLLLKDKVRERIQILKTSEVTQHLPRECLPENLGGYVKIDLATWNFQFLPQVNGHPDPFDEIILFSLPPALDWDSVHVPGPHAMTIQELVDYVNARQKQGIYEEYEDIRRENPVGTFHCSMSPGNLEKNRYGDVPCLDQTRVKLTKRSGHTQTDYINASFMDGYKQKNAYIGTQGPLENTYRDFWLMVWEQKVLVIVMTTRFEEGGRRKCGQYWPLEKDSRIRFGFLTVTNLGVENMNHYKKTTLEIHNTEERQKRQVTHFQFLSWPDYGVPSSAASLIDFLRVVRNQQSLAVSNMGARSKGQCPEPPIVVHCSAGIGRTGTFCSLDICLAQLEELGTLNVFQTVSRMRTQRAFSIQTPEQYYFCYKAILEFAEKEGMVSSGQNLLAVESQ
pIC50: −log10 of the molar value.
measure name: pIC50

Sure, the documented pIC50 for O=C(Nc1ccc(NC(=O)C(c2ccccc2)S(=O)(=O)O)cc1)C(=O)Nc1ccc(-c2ccccc2)cc1 (stereo unspecified) is < 4.30

* * *

Property: IC50; scope: individual compounds
target: Receptor-type tyrosine-protein phosphatase beta (Homo sapiens); assay: Inhibition of phosphatase activity of human PTPbeta using pNPP as a substrate after 10 mins by spectrophotometer analysis
Sequence (P23467 whole entry): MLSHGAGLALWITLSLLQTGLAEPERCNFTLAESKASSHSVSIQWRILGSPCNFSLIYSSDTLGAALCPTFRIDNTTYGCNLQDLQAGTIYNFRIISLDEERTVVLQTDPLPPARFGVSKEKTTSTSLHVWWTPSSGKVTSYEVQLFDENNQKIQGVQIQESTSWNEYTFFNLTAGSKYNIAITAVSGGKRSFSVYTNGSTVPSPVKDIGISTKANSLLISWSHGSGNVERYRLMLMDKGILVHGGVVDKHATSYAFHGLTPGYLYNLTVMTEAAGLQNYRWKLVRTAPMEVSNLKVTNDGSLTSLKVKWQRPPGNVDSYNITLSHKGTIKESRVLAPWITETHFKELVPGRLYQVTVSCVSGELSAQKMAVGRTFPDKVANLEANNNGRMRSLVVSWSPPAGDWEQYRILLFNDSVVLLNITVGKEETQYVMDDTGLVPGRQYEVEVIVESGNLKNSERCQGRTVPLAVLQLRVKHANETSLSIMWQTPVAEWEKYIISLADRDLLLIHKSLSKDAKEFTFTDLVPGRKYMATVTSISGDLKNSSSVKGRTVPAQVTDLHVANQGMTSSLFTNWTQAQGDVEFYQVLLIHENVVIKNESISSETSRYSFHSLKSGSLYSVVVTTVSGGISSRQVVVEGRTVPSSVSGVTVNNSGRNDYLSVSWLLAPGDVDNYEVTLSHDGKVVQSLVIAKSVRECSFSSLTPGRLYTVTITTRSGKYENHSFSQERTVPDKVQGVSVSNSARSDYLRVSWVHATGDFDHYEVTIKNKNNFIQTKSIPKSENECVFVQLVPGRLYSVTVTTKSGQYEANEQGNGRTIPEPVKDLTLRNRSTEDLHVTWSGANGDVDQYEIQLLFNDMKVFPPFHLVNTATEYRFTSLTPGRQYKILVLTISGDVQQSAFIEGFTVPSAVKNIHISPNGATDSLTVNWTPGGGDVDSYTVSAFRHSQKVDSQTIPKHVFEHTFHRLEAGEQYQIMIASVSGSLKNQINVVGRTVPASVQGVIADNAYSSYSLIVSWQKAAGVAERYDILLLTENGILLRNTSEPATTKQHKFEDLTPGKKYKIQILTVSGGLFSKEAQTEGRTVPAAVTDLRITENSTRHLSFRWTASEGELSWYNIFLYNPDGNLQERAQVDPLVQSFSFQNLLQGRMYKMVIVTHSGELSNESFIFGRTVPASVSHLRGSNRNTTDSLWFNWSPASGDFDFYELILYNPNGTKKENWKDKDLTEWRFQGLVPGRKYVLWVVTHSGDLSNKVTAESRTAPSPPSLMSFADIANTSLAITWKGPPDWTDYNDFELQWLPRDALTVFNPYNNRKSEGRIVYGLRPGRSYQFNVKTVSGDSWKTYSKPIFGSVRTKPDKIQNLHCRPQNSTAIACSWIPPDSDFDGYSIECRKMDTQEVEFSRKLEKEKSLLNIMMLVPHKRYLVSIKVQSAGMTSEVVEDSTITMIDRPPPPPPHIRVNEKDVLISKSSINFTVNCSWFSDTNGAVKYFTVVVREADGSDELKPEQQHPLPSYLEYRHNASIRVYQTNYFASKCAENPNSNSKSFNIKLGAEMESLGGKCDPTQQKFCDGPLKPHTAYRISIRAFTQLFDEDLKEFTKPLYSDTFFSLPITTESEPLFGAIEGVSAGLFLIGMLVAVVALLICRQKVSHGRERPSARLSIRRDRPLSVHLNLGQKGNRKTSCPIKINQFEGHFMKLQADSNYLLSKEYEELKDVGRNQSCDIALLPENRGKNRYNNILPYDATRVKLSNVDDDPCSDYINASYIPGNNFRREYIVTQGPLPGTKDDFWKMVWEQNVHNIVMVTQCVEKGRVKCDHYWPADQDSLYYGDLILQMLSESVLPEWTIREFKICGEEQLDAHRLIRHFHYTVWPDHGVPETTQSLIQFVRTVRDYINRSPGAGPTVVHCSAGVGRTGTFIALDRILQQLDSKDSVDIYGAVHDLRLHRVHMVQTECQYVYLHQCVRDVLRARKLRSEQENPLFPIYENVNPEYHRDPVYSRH

Sure, the documented IC50 for O=C(Nc1ccc(I)cc1)C(=O)Nc1ccc(NC(=O)C(c2ccccc2)S(=O)(=O)O)cc1 (configuration not stated) is > 50 µM

Further cases:
Sure, the documented IC50 for O=C(Nc1ccc(NC(=O)C(c2ccccc2)S(=O)(=O)O)cc1)C(=O)Nc1ccc(-c2ccccc2)cc1 (configuration not stated) is > 50 µM

* * *

Receptor-type tyrosine-protein phosphatase gamma (Homo sapiens, UniProt P23470): reported pIC50 for various compounds.
Sequence (P23470 whole entry): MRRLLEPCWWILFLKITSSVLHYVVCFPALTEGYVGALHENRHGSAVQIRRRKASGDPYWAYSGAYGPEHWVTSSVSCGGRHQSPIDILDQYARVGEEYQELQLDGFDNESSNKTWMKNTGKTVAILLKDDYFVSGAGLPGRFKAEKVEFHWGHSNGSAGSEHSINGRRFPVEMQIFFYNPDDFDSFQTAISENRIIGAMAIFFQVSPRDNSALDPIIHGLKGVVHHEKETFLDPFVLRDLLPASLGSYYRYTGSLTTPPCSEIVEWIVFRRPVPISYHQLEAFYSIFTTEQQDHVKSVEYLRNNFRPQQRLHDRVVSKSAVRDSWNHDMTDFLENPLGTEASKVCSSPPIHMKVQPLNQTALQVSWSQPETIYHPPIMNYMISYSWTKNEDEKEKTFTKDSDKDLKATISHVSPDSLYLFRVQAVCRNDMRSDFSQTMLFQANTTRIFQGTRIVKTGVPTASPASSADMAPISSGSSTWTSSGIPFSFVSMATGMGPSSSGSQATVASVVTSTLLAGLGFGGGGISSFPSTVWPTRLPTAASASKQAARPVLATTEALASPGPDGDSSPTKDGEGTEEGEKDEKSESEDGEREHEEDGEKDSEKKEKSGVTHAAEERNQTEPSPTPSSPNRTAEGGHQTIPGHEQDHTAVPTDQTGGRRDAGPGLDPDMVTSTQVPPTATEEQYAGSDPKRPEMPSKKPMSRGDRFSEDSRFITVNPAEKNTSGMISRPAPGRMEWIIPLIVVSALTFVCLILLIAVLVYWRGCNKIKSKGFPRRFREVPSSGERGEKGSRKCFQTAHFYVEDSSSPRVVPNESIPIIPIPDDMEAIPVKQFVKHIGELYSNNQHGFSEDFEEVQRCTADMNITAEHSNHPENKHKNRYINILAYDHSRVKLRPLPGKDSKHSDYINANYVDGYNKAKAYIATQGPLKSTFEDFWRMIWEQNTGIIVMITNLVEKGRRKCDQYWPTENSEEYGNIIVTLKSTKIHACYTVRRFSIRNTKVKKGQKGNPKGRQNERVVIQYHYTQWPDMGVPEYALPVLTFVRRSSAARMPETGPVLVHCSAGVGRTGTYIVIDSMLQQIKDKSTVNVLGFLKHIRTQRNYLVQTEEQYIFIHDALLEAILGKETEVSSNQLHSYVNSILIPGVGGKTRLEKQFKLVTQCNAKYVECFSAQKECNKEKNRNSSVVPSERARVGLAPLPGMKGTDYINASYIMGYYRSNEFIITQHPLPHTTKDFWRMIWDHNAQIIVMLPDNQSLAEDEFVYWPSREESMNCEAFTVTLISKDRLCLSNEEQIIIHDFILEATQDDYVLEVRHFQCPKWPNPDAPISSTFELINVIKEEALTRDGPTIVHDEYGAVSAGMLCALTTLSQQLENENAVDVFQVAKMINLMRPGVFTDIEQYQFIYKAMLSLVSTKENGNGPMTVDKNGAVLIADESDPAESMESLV
pIC50: −log10 of the molar value.

Sure, the documented pIC50 for O=C(Nc1ccc(I)cc1)C(=O)Nc1ccc(NC(=O)C(c2ccccc2)S(=O)(=O)O)cc1 (configuration not stated) is < 4.30

Turning to the following compound.
Sure, the documented pIC50 for O=C(Nc1ccc(NC(=O)C(c2ccccc2)S(=O)(=O)O)cc1)C(=O)Nc1ccc(-c2ccccc2)cc1 (configuration not stated) is < 4.30

* * *

Property: IC50; scope: individual molecules
Molecular target: Low molecular weight phosphotyrosine protein phosphatase (Homo sapiens)
Sequence (P24666 whole entry): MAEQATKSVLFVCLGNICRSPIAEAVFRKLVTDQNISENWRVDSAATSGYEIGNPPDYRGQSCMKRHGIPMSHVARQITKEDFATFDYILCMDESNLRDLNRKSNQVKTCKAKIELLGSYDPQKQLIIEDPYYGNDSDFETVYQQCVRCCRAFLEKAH

Sure, the documented IC50 for O=C(Nc1ccc(NC(=O)C(c2ccccc2)S(=O)(=O)O)cc1)C(=O)Nc1ccc(-c2ccccc2)cc1 (configuration not stated) is > 50 µM

Turning to the following molecule.
Sure, the documented IC50 for O=C(Nc1ccc(I)cc1)C(=O)Nc1ccc(NC(=O)C(c2ccccc2)S(=O)(=O)O)cc1 (configuration not stated) is > 50 µM
